B1: NFE2L1 (parent)
chain: TLDGYGIHPKSIDLDNYFTARRLL

# Variants of: B1
# protocol-summary: protein stability index of a GFP-peptide fusion (GPS, HEK-293T) (PSI 1-6); higher = more stable;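 note: lentivirally expressed fusions sorted by FACS into six bins by GFP to DsRed ratio, PSI derived from sequencing read proportions per bin multiplied by bin number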
# experimental-conditions: c terminus: a fixed tail appended
Recorded measurements of protein stability index, one per entry
readout: protein stability index

- mutation-annotation: "N16Y"
  reported: 2.19
- mutation-annotation: "F18S"
  reported: 2.16
- mutation-annotation: "D13A"
  reported: 1.84
- mutation-annotation: "L14D"
  reported: 2.71
- mutation-annotation: "L24H"
  reported: 2.14
- mutation-annotation: "L24S"
  reported: 2.48
- mutation-annotation: "D3R"
  reported: 2.33
- mutation-annotation: "L24T"
  reported: 2.42
- mutation-annotation: "L2E"
  reported: 2.05
- mutation-annotation: "T19Y"
  reported: 1.8
- mutation-annotation: "S11W"
  reported: 1.67
